# Read-out: Monokine induced gamma interferon (MIG), CXCL9 (gene 4283)
# Experiment Description: BSK_SAg_MIG: BioMAP Diversity Plus: SAg Assay for Monokine induced gamma interferon (MIG) Biomarker Activity (AID 2283092)
# Condition Label: primary human HUVEC with PBMC; actives raise or lower the signal
# Method: BSK_SAg is a cell-based, multiplexed-readout assay that uses umbilical vein endothelium and peripheral blood mononuclear cells, a human vascular primary cell co-culture, with measurements taken at 24 hours after chemical dosing in a 96-well plate.BSK_SAg_MIG is an assay component measured in the BSK_SAg assay. It measures MIG antibody related to regulation of gene expression using ELISA technology.Data from the assay component BSK_SAg_MIG was analyzed into 1 assay endpoint. […]
Calls of active or inactive are those of the source. The calls were made as follows: active = hit-call score of the fitted dose curve at least 0.9, where 1 is the maximum; inactive = score below 0.9.
Respond only with the outcome that fits, drawn from active, inactive

// known answers, use as guide
CCCCCCOC(=O)CCCCC(=O)OCCCCCC
inactive
C=CCCCCCCCCC=O
inactive
CCCCCCCCC(CO)CCCCCC (centres undefined)
inactive
C1CNCCN1
inactive
C=CC(=O)OCC(C)OCC(C)OCC(C)OC(=O)C=C (centres undefined)
active
Oc1ccccc1Cc1ccccc1O
inactive
c1ccc(Nc2cccc3ccccc23)cc1
inactive
c1ccc2sc(SSN3CCOCC3)nc2c1
inactive

--- query ---
[in] Can you look up the reported call for `c1ccc2c(c1)[nH]c1ccccc12` for me?
[out] inactive

---

# Target Or System: Retinoic acid receptor RXR-alpha (Homo sapiens) (UniProt P19793)
# Sequence (P19793 whole entry, looked up): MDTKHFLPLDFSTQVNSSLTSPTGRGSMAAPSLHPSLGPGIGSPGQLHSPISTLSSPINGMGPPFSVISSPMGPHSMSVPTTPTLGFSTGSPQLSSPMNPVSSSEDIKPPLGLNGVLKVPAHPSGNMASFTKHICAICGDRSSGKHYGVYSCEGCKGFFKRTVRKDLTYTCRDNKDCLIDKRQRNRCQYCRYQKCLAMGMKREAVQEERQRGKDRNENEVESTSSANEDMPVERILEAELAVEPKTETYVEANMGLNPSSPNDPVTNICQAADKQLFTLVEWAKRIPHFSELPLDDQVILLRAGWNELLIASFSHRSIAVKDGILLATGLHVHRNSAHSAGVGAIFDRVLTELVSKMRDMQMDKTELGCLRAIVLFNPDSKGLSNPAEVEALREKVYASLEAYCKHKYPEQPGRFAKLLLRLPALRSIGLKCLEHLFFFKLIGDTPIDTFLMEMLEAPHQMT
# Experiment Description: ATG_RXRa_TRANS: Attagene TRANS-FACTORIAL HepG2 Assay for human Retinoid X Receptor alpha (RXRa) (AID 2283012)
# Procedure: ATG_TRANS is a cell-based, multiplexed-readout assay that uses HepG2, a human liver cell line, with measurements taken at 24 hours after chemical dosing in a 24-well plate.ATG_RXRa_TRANS is one of 30 assay component(s) measured or calculated from the ATG_TRANS assay. […] This assay endpoint, ATG_RXRa_TRANS, was analyzed in the positive analysis fitting direction relative to DMSO as the negative control and baseline of activity. […]
Results filed as inconclusive are left out. Active and inactive are the calls of the source. The calls were made as follows: active = hit-call score of the fitted dose curve at least 0.9, where 1 is the maximum; inconclusive = response in the unintended direction; inactive = score below 0.9.
Could you please pick one outcome from this set? active, inactive

Cc1cc(C)c(C=O)c(C)c1
inactive
CCCCCCCCCCCCc1ccc(O)cc1
inactive
CCCCC1CCC(=O)O1 (stereo unspecified)
inactive
C=C[C@@]1(C)CC(=O)[C@]2(O)[C@@]3(C)[C@@H](O)CCC(C)(C)[C@@H]3[C@H](O)[C@H](OC(C)=O)[C@@]2(C)O1
active
O=C(C=Cc1ccccc1)OCCc1ccccc1
inactive
Nc1nc(N)nc(-c2ccccc2)n1
inactive

[in] Could you please tell me the result logged for `CCOC(=O)C1=NOC(c2ccccc2)(c2ccccc2)C1` in this assay?
[out] inactive

[in] Dear all, I need the recorded test outcome for `CCCCCCCCCC[N+](C)(CCCCCCCCCC)CCC[Si](OC)(OC)OC` , thank you.
[out] inactive

[in] GET /call?item= `CC/C=C\C/C=C\C/C=C\CCCCCCCC(=O)OC` returns the recorded outcome of this test.
[out] inactive

[in] Lab log entry: `C/C=C/C=C/CCCCCCCO` — outcome as called in the assay?
[out] inactive

[in] Any idea what this test logged for `Cc1noc(NS(=O)(=O)c2ccc(N)cc2)c1C` ?
[out] inactive
